test.protocol: in vitro
reported.conditions: mouse, liver microsomes, t (1 / 2)
Description: DNDI: half life in mouse liver microsomes at a concentration of 1uM
Please assign a class to every record based on measured half-life at 1 µM, with ranges low: < 5 min; middle: ≥ 5 min and < 60 min; high: ≥ 60 min

Assign a category based on measured half-life at 1 µM for CCCCCC(C)NCc1coc(-c2cccc(Oc3ccccc3)c2)n1 (centres undefined) and give only the class name.
high

Class for O/N=C(/NC1CCCCC1)c1cccnc1Oc1ccc(F)cc1 ?
low

Form: Item = CCCCc1ccc(-c2nc(CNCCN(C)C)co2)cc1 ; Class = ?
middle

Lab note: which band did CC(C)Oc1ccc(-c2nc(CN[C@@H]3C[C@@H]4C[C@H]([C@H]3C)C4(C)C)co2)cc1 land in?
high

Form: Item = CCCCCC(C)NCc1coc(-c2ccc(OCC(C)(C)C)cc2)n1 (centres undefined) ; Class = ?
high

Which class does COc1ccc(/C(=N/O)NC2CCCCC2)cc1 fall in?
low

Class? Entry: CCCCc1ccc(-c2nc(CNCCC3CCCN3C)co2)cc1 (centres undefined)
middle

Band for CCCCCC(C)NCc1coc(Cc2ccc(OC)cc2)n1 (centres undefined) ?
middle

###

Provide the recorded half-life at 10 µM for the entries that follow.
test.protocol: DNDI: half-life in mouse S9 microsomes at a concentration of 10uM
Assay type: ADME, subcellular, Liver, S9 fraction
Your answer should be a plain number; it is taken to be in h.

According to the records, this molecule Fc1ccc(-c2cc3nc(-c4ccccc4)cc(N4CCNCC4)n3n2)cc1 displays half-life at 10 µM of 3.68

half-life at 10 µM reported for this molecule Cc1cc(N2CCNCC2)n2nc(-c3cccc(F)c3)cc2n1 : 3.57

The molecule listed as Fc1ccc(-c2cc3nc(-c4ccccc4)cc(NC4CCNC4)n3n2)cc1 (centres undefined) has a reported half-life at 10 µM of 2.82

###

For each of the molecules below, state its half-life at 1 µM.
test.protocol: in vitro
reported.conditions: mouse, liver microsomes, t (1 / 2)
Respond with the bare value in min.

Briefly, half-life at 1 µM measured for COC/C(=N/O)c1ccc(OC)cc1 : 44

response.value for COc1ccc(N/C(=N/O)c2ccccc2-c2ccccc2)cc1 (field: half-life at 1 µM) = 5

half-life at 1 µM reported for this molecule CC(C)Oc1ccc(-c2nc(CNC3CCCCCC3)co2)cc1 : 68

Recorded result, O/N=C(\NC1CCCCC1)c1cc(F)cc(F)c1 , half-life at 1 µM: 25

Noted for COc1ccc(/C(=N/O)Nc2ccc(F)cc2)cc1 : its half-life at 1 µM reads 7

Looking up CCC(C)C(NCc1ccc(C)cc1)c1nc(Cc2ccccc2)c(N2CCOCC2)o1 (stereo unspecified) , I found its half-life at 1 µM recorded as 2

###

Provide the reported IC50 at 24 h of each item.
test.protocol: DNDI: Cytotoxicity against L929 mouse fibroblasts, CYTO-SP, 24 hour
Assay type: toxicity, cell-based
reported.conditions: mouse, L929 mouse fibroblasts

// IC50 at 24 h lookup, compound = CCCCCC(C)NCc1cc(-c2ccccc2)on1 (stereo not given) , result: 32 mg/L

// IC50 at 24 h lookup, compound = C[C@@H]1[C@H]2C[C@@H](C[C@H]1NCc1coc(-c3ccc(Br)cc3)n1)C2(C)C , result: > 50 mg/L

The value of IC50 at 24 h measured for the compound CCCCCC(C)NCc1coc(-c2ccc(CCCC)cc2)n1 (stereo not given) turned out to be > 50 mg/L

Briefly, IC50 at 24 h measured for COCC(C)N/C(=N\O)c1cccnc1Oc1ccc(C(C)C)cc1 (stereo not given) : > 50 mg/L

Noted for CCCCOc1ccc(-c2nc(CNC3[C@H]4C[C@@H]5C[C@@H](C[C@H]3C5)C4)co2)cc1 (stereo not given in full) : its IC50 at 24 h reads 15.9 mg/L
